Molecular target: thromboxane A2 receptor (Cavia porcellus)
Construct: platelet-rich plasma; endogenous in cells
Sequence (A0A286Y4I8 1-347): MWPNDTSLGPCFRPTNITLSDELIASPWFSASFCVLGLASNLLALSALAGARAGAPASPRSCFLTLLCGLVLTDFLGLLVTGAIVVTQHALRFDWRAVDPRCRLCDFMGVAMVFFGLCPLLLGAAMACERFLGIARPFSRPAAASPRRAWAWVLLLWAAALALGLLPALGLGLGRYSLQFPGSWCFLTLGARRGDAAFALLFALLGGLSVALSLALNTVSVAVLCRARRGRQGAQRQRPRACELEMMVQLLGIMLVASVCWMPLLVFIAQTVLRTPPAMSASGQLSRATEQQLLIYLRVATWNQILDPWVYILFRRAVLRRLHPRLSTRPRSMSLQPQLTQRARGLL
Experiment: Thromboxane A2 antagonistic effect: inhibition of U-46619-induced platelet aggregation in guinea-pig platelet-rich plasma
Conditions: guinea-pig PRP, U-46619 2 μg/ml, 2 min at 37° C.; read-out: IC50 (50% inhibition against platelet aggregation)
READOUT LABEL: pIC50
Reminder that pIC50 means the negative base-10 logarithm of the concentration expressed in mol/L.

COMPOUND | pIC50
COc1ccc(S(=O)(=O)NC(Cc2ccccc2)c2ccc(CCCC(=O)O)cc2)cc1 (centres unmarked) [Example 91] | 6.49
O=C(O)CCCc1ccc(C(CC2CC3CCC2C3)NS(=O)(=O)c2ccc(Cl)cc2)cc1 (centres unmarked) [Example 85] | 6.40
O=C(O)CCCc1ccc(C(CC2CCCC2)NS(=O)(=O)c2ccc(Cl)cc2)cc1 (centres unmarked) [Example 78] | 6.49
O=C(O)CCCc1ccc(C(Cc2ccccc2)NS(=O)(=O)c2ccc(Cl)cc2)cc1 (centres unmarked) [Example 62] | 7.30
O=C(O)CCCc1ccc(C(NS(=O)(=O)c2ccc(Cl)cc2)C2CCCC2)cc1 (centres unmarked) [Example 73] | 6.60
O=C(O)CCCc1ccc(C(Cc2cccc(F)c2)NS(=O)(=O)c2ccc(Cl)cc2)cc1 (centres unmarked) [Example 94] | 7.20

Output reported pIC50 of the compound CCCCC(NS(=O)(=O)c1ccc(Cl)cc1)c1ccc(CCCC(=O)O)cc1 (centres unmarked) [Example 66] on thromboxane A2 receptor (Cavia porcellus). 6.49

Output reported pIC50 of the compound O=C(O)CCCCc1ccc(C(CC2CCCCC2)NS(=O)(=O)c2ccc(Cl)cc2)cc1 (centres unmarked) [Example 113] on thromboxane A2 receptor (Cavia porcellus). 6.40

Output reported pIC50 of the compound CCCCCCC(NS(=O)(=O)c1ccc(Cl)cc1)c1ccc(CCCC(=O)O)cc1 (centres unmarked) [Example 99] on thromboxane A2 receptor (Cavia porcellus). 6.49

Output reported pIC50 of the compound O=C(O)CCCc1ccc(C(CC2CCCCC2)NS(=O)(=O)c2ccc(Cl)cc2)cc1 (centres unmarked) [Example 79] on thromboxane A2 receptor (Cavia porcellus). 6.49

Output reported pIC50 of the compound CC(C)C(NS(=O)(=O)c1ccc(Cl)cc1)c1ccc(CCCC(=O)O)cc1 (centres unmarked) [Example 69] on thromboxane A2 receptor (Cavia porcellus). 6.70

Output reported pIC50 of the compound CCC(NS(=O)(=O)c1ccc(Cl)cc1)c1ccc(CCCC(=O)O)cc1 (centres unmarked) [Example 64] on thromboxane A2 receptor (Cavia porcellus). 6.80

Output reported pIC50 of the compound CC(C)CC(NS(=O)(=O)c1ccc(Cl)cc1)c1ccc(CCCC(=O)O)cc1 (centres unmarked) [Example 70] on thromboxane A2 receptor (Cavia porcellus). 6.49

Output reported pIC50 of the compound O=C(O)CCCc1ccc(C(CCCCc2ccccc2)NS(=O)(=O)c2ccc(Cl)cc2)cc1 (centres unmarked) [Example 115] on thromboxane A2 receptor (Cavia porcellus). 6.49

Output reported pIC50 of the compound O=C(O)CCCc1ccc(C(NS(=O)(=O)c2ccc(Cl)cc2)C2CCCCCC2)cc1 (centres unmarked) [Example 75] on thromboxane A2 receptor (Cavia porcellus). 6.49

Output reported pIC50 of the compound O=C(O)CCCc1ccc(C(CCCCCc2ccccc2)NS(=O)(=O)c2ccc(Cl)cc2)cc1 (centres unmarked) [Example 116] on thromboxane A2 receptor (Cavia porcellus). 6.30

Output reported pIC50 of the compound O=C(O)CCCc1ccc(C(CCc2ccccc2)NS(=O)(=O)c2ccc(Cl)cc2)cc1 (centres unmarked) [Example 98] on thromboxane A2 receptor (Cavia porcellus). 6.49

###

Documented Kb across a set of compounds
Biological target: leukotriene D4 (Cavia porcellus)
Construct: tracheas were isolated from male Hartley guinea-pigs; from tissue; host or cells: isolated trachea of male Hartley guinea-pigs
Assay: Leukotriene D4 antagonistic effect in isolated trachea (Schild method)
Parameters: species or system male Hartley guinea-pigs
Conditions: isolated trachea, 30 min treatment, indomethacin 3×10^-6 M, Krebs 37° C.

COMPOUND | Kb
O=C(O)CCCc1ccc(C(CC2CCCCC2)NS(=O)(=O)c2ccc(Cl)cc2)cc1 (centres unmarked) [Example 79] | 100 nM

Give reported Kb value for O=C(O)CCCc1ccc(C(NS(=O)(=O)c2ccc(Cl)cc2)C2CCCCCC2)cc1 (centres unmarked) [Example 75] 398 nM

Give reported Kb value for CC(C)CCC(NS(=O)(=O)c1ccc(Cl)cc1)c1ccc(CCCC(=O)O)cc1 (centres unmarked) [Example 71] 200 nM

Give reported Kb value for CCCCCC(NS(=O)(=O)c1ccc(Cl)cc1)c1ccc(CCCCC(=O)O)cc1 (centres unmarked) [Example 106] 126 nM

Give reported Kb value for CC(C)CCCCC(NS(=O)(=O)c1ccc(Cl)cc1)c1ccc(CCCC(=O)O)cc1 (centres unmarked) [Example 108] 158 nM

Give reported Kb value for O=C(O)CCCc1ccc(C(CC23CC4CC(CC(C4)C2)C3)NS(=O)(=O)c2ccc(Cl)cc2)cc1 (centres unmarked) [Example 84] 200 nM

Give reported Kb value for O=C(O)CCCc1ccc(C(NS(=O)(=O)c2ccc(Cl)cc2)C2CCCCC2)cc1 (centres unmarked) [Example 74] 501 nM

Give reported Kb value for CCCCC[C@H]1CC[C@H](C(NS(=O)(=O)c2ccc(Cl)cc2)c2ccc(CCCC(=O)O)cc2)CC1 (relative stereo) [Example 77] 631 nM

Give reported Kb value for O=C(O)CCCCc1ccc(C(CC2CCCCC2)NS(=O)(=O)c2ccc(Cl)cc2)cc1 (centres unmarked) [Example 113] 39.8 nM

Give reported Kb value for CCCCC(NS(=O)(=O)c1ccc(Cl)cc1)c1ccc(CCCCC(=O)O)cc1 (centres unmarked) [Example 102] 200 nM

Give reported Kb value for O=C(O)CCCc1ccc(C(CCc2ccccc2)NS(=O)(=O)c2ccc(Cl)cc2)cc1 (centres unmarked) [Example 98] 398 nM

Give reported Kb value for O=C(O)CCCc1ccc(C(CCC2CCCCC2)NS(=O)(=O)c2ccc(Cl)cc2)cc1 (centres unmarked) [Example 80] 126 nM

Give reported Kb value for O=C(O)CCCc1ccc(C(Cc2ccc(Cl)cc2)NS(=O)(=O)c2ccc(Cl)cc2)cc1 (centres unmarked) [Example 96] 1000 nM

Give reported Kb value for O=C(O)CCCc1ccc(C(CCCCCc2ccccc2)NS(=O)(=O)c2ccc(Cl)cc2)cc1 (centres unmarked) [Example 116] 200 nM

Give reported Kb value for O=C(O)CCCc1ccc(C(Cc2ccc(F)cc2)NS(=O)(=O)c2ccc(Cl)cc2)cc1 (centres unmarked) [Example 95] 501 nM

Give reported Kb value for O=C(O)CCCc1ccc(C(CC2CC3CCC2C3)NS(=O)(=O)c2ccc(Cl)cc2)cc1 (centres unmarked) [Example 85] 158 nM

Give reported Kb value for O=C(O)Cc1ccc(CCNS(=O)(=O)c2ccc(Cl)cc2)cc1 [Reference compound, reference compound] > 100000 nM

Give reported Kb value for C[C@H]1CC[C@H](C(NS(=O)(=O)c2ccc(Cl)cc2)c2ccc(CCCC(=O)O)cc2)CC1 (relative stereo) [Example 76] 200 nM

###

Target: leukotriene D4 (Cavia porcellus)
Construct: tracheas were isolated from male Hartley guinea-pigs; from tissue; host or cells: isolated trachea of male Hartley guinea-pigs
Sequence (Q2NNR5 1-340): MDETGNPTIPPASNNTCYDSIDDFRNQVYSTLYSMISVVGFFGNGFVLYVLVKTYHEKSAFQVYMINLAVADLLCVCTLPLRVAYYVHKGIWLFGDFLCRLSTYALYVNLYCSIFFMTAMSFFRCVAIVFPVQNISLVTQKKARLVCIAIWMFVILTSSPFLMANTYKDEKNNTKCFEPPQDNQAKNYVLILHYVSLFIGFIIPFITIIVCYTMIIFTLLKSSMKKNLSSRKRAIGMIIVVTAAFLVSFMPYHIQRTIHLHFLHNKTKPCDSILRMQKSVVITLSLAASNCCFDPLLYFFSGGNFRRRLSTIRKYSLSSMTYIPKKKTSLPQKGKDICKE
Assay: Leukotriene D4 antagonistic effect in isolated trachea (Schild method)
Set-up: species or system male Hartley guinea-pigs
Settings: isolated trachea, 30 min treatment, indomethacin 3×10^-6 M, Krebs 37° C.
Documented Kb across a set of compounds
# value in µM; strip the unit string

Sample answers from the record:
COMPOUND | MEASUREMENT TARGET | VALUE UNIT | Kb
O=C(O)CCCc1ccc(C(CC2CCCC2)NS(=O)(=O)c2ccc(Cl)cc2)cc1 (centres unmarked) | leukotriene D4 (Cavia porcellus) | µM | 1
CCCCCCC(NS(=O)(=O)c1ccc(Cl)cc1)c1ccc(CCCC(=O)O)cc1 (centres unmarked) | leukotriene D4 (Cavia porcellus) | µM | 0.126
CCCCC(NS(=O)(=O)c1ccc(Cl)cc1)c1ccc(CCCC(=O)O)cc1 (centres unmarked) | leukotriene D4 (Cavia porcellus) | µM | 0.794
CCCCc1ccc(CCC(NS(=O)(=O)c2ccc(Cl)cc2)c2ccc(CCCC(=O)O)cc2)cc1 (centres unmarked) | leukotriene D4 (Cavia porcellus) | µM | 0.251

Consider now this further compound.
Output reported Kb of the compound CC(C)CCCC(NS(=O)(=O)c1ccc(Cl)cc1)c1ccc(CCCC(=O)O)cc1 (centres unmarked) on leukotriene D4 (Cavia porcellus). 0.1
